Parameter: GI50. Scope: all listed entries.
Tested on: HT29 colon
Assay: NCI tumour cell line growth inhibition, 48 h

SUBSTANCE_SMILES	GI50
OCCCCC#Cc1ccccc1C#Cc1ccccc1C(F)(F)F	4.01 µM
N=C(N)CCCCCCCCC(=N)N	26.3 µM
O=c1cc(-c2ccccc2)nc2n1CCN2Cc1ccccc1	58.1 µM
C[N+](C)(CCCCCC[N+](C)(C)CCCN1C(=O)c2cc3ccccc3cc2C1=O)CCCN1C(=O)c2ccccc2C1=O	> 37.5 µM
CC1(C)N=C(N)N=C(N)N1c1cc(Cl)ccc1Cl	62.5 µM
CCOC(=O)Oc1c(OC)cc(C(=O)O[C@@H]2C[C@@H]3CN4CCc5c([nH]c6cc(OC)ccc56)[C@H]4C[C@@H]3[C@H](C(=O)OC)[C@H]2OC)cc1OC	2.32 µM
